# System: HEK-Blue IL-17 cells with rhIL-17A/A
# RUN DESCRIPTION: HEK-Blue IL-17 cell assay (SEAP reporter, rhIL-17A/A stimulation)
# Assay type: cell-based, human
# EXPERIMENTAL SETUP: Homo sapiens, HEK-Blue, 20 h, 20 hours incubation, absorbance at 405 nm, read-out: IC50 in HEK-Bule cell Assay
MEASURED PARAMETER: IC50 (nM)
One number for each entry, in nM.

Please review the entries below; each comes with its answer.
[[record]]
molecule = "CC(C)C1CC(C(=O)N2CC3(C2)CC(F)(F)C3)c2ccc(NC(=O)[C@@H](NC(=O)c3ccnn3C(C)C)C3CCCCCC3)cc2O1 (stereo partly drawn) [Compound 165]"
endpoint_result = 127

[[record]]
molecule = "CC(C)n1nccc1C(=O)N[C@H](C(=O)Nc1ccc2c(c1)OC1(CCCC1)CC2C(=O)N1CC(F)(F)C1)C1CCCCCC1 (stereo partly drawn) [Compound 223]"
endpoint_result = 130

[[record]]
molecule = "CC(C)n1nccc1C(=O)N[C@H](C(=O)Nc1cc2c(cc1F)[C@H](C(=O)N1CC(F)(F)C1)C[C@H](C1CC(F)(F)C1)O2)C1CCC(F)(F)CC1 [Compound 249]"
endpoint_result = 99.3

[[record]]
molecule = "CC(C)n1nccc1C(=O)N[C@H](C(=O)Nc1cc2c(cc1F)C(C(=O)N1CC(F)(F)C1)CC1(CCOCC1)O2)[C@H]1CC[C@H](C)CC1 (stereo partly drawn) [Compound 244]"
endpoint_result = 13.5

[[record]]
molecule = "Cc1nonc1C(=O)N[C@H](C(=O)Nc1ccc2c(c1)OC(C(C)C)CC2C(=O)N1CC(F)(F)C1)C1CCCCCC1 (stereo partly drawn) [Compound 214]"
endpoint_result = 335


What value of IC50 has been reported for the following molecule? CC(C)n1nccc1C(=O)N[C@H](C(=O)Nc1ccc2c(c1)OC(C)(C)CN2C(=O)N1CC(F)(F)C1)C1CCCCCC1 [Compound 166]
54.5

---

# Tested on: HEK-Blue IL-17 cells with rhIL-17A/A
# RUN DESCRIPTION: HEK-Blue IL-17 cell assay (SEAP reporter, rhIL-17A/A stimulation)
# Format: cell-based, human
# EXPERIMENTAL SETUP: Homo sapiens, HEK-Blue, 20 h, 20 hours incubation, absorbance at 405 nm, read-out: IC50 in HEK-Bule cell Assay
pIC50: −log10 of the molar value.
Please enter Y where pIC50 is greater than or equal to 7, and N where it is lower.

Use these answered entries as a reference point.
[[record]]
molecule = "CC(C)n1nccc1C(=O)N[C@H](C(=O)Nc1ccc2c(c1)OC1(CCOCC1)CN2C(=O)N1CC(F)(F)C1)C1CCCCCC1"
category_label = "Y"

[[record]]
molecule = "CC(C)n1nccc1C(=O)N[C@H](C(=O)Nc1ccc2c(c1)O[C@@H](C1CC(F)(F)C1)C[C@H]2C(=O)N1CC(F)(F)C1)[C@H]1CC[C@H](C)CC1"
category_label = "Y"

[[record]]
molecule = "CC(C)n1nccc1C(=O)N[C@H](C(=O)Nc1ccc2c(c1)OC1(CCC1)CC2C(=O)N1CC(F)(F)C1)C1CCCCCC1 (stereo partly drawn)"
category_label = "N"

[[record]]
molecule = "CC(C)n1nccc1C(=O)N[C@H](C(=O)Nc1ccc2c(c1)OC(C)(C)CC2C(=O)N1CC(F)(F)C1)C1CCCCCC1 (stereo partly drawn)"
category_label = "N"


We now examine a further molecule.
Is reported pIC50 greater than or equal to 7 here: CC(C)C1CC(C(=O)N2CC(F)(F)C2)c2cc(F)c(NC(=O)[C@@H](NC(=O)c3ccnn3C(C)C)C3CCCCCC3)cc2O1 (stereo partly drawn)
N
